// compounds with pIC50 on UniProt Q9H4B7, multi-source literature
Sequence (Q9H4B7 whole entry): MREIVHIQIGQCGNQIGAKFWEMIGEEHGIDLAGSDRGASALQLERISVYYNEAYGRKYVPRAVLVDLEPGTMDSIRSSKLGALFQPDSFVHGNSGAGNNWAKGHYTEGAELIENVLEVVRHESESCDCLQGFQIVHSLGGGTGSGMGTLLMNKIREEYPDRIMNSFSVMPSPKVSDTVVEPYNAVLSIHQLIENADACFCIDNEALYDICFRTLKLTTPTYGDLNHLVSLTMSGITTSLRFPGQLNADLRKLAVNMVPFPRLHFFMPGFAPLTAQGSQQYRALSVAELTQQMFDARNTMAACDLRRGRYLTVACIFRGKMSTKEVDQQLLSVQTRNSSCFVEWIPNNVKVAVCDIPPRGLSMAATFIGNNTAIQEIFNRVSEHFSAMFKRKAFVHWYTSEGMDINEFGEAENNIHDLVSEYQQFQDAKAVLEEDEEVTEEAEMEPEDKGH
pIC50: −log10 of the molar value.
QUANTITY MEASURED: pIC50

compound=COc1ccc(/C=C\c2cc(OC)c(OC)c(OC)c2)cc1OCCN(C)C.Cl relation_qualifier=< numeric_readout=4.40
compound=COc1ccc(OC)c(C(=O)/C(C)=C/c2ccc(N(C)C)cc2)c1 relation_qualifier== numeric_readout=5.00
compound=COc1ccc(/C=C\c2ccc(C)c(C)c2)cc1F relation_qualifier== numeric_readout=5.18
compound=COc1cc(C(=O)/C=C/c2cc(F)c(OC)c(F)c2)cc(OC)c1OC relation_qualifier== numeric_readout=4.92
compound=COc1ccc(OCc2cc(OC)c(OC)c(OC)c2)cc1CO relation_qualifier=< numeric_readout=4.00
compound=CO/C(=C\c1ccc(OC)c(F)c1)C(=O)c1cc(OC)c(OC)c(OC)c1 relation_qualifier== numeric_readout=6.33
compound=COc1cc(C(=O)/C(C)=C/c2cc(F)c(OC)c(F)c2)cc(OC)c1OC relation_qualifier== numeric_readout=5.62
compound=CO/C(=C\c1cc(F)c(OC)c(F)c1)C(=O)c1cc(OC)c(OC)c(OC)c1 relation_qualifier== numeric_readout=5.77
compound=COc1ccc(/C=C\c2cc(OC)c(OC)c(OC)c2)cc1OCCN1CCN(C)CC1.Cl.Cl relation_qualifier=< numeric_readout=4.40
compound=COc1ccc(/C=C\c2cc(OC)c(OC)c(OC)c2)cc1OCCOS(C)(=O)=O relation_qualifier=< numeric_readout=4.40
compound=COc1ccc(/C=C\c2cc(OC)c(OC)c(OC)c2)cc1OCCCO relation_qualifier== numeric_readout=5.19
compound=COc1ccc(/C=C\c2cc(OC)c(OC)c(OC)c2)cc1OCCn1cccc1.Cl relation_qualifier== numeric_readout=4.70
compound=COc1ccc(/C=C\c2cc(OC)c(OC)c(OC)c2)cc1OCCO relation_qualifier== numeric_readout=5.55
compound="COc1ccc(COc2cc(OC)c(OC)c(OC)c2)cc1OCC(O)CO (stereo not given)" relation_qualifier=< numeric_readout=4.00
compound=CCc1ccc(/C=C\c2cc(OC)c(OC)c(OC)c2)cc1 relation_qualifier== numeric_readout=5.47
compound=COc1ccc(C(=O)/C=C/c2cc(F)c(OC)c(F)c2)c(OC)c1OC relation_qualifier== numeric_readout=4.51
compound=COc1ccc2c(C(=O)c3cc(OC)c(OC)c(OC)c3)c[nH]c2c1 relation_qualifier== numeric_readout=5.66
compound=COc1ccc2c(ccn2C(=O)c2cc(OC)c(OC)c(OC)c2)c1 relation_qualifier== numeric_readout=5.42
compound=COc1ccc(Oc2cc(OC)c(OC)c(OC)c2)cc1O relation_qualifier== numeric_readout=4.96
compound=COc1ccc(/C=C\c2cc(OC)c(OC)c(OC)c2)cc1OCCCl relation_qualifier=< numeric_readout=4.40
compound="COc1ccc(/C=C(\\C)C(O)c2cc(OC)c(OC)c(OC)c2)cc1O (stereo not given)" relation_qualifier=< numeric_readout=5.00
compound=COc1ccc(/C=C\c2cc(C)c(C)c(C)c2)cc1 relation_qualifier== numeric_readout=6.19
compound=COc1ccc(/C=C/C(=O)c2cc(OC)c(OC)c(OC)c2)cc1F relation_qualifier== numeric_readout=5.92
compound=COc1ccc(/C=C\c2cc(C)c(C)c(C)c2)cc1O relation_qualifier== numeric_readout=6.92
compound=COc1ccc(/C=C\c2cc(F)c(F)c(F)c2)cc1F relation_qualifier== numeric_readout=5.26
